test system: SNB-19 CNS; assay: NCI-60 one-dose screen, 48 h (100 = growth as untreated, 0 = no growth, -100 = all killed); details: 10 µM unless noted
About 83,000 compounds went through this panel and 20% of them were active in at least one assay; those are over-represented in the sample as a whole.
outcomeMeasure: growth (%)
Numbers only, in %.

Some solved entries appear below for comparison.
molecule	systemName	displayUnit	recordedMeasurement
Clc1nc(N2CCC[N+]3(CC2)CC[N+]2(CCCNCC2)CC3)nc(N2CCC[N+]3(CC2)CC[N+]2(CCCNCC2)CC3)n1 (configuration not stated)	SNB-19 CNS	%	112
Cc1oc2ccc(O)c(CN3CCCCCC3)c2c1C(=O)Nc1ccc(C(F)(F)F)cc1	SNB-19 CNS	%	69.9
COC(=O)[C@H]1Cc2c([nH]c3ccccc23)[C@H](c2ccc3c(c2)OCO3)N1	SNB-19 CNS	%	96.4
Cc1ccc2nc(/C=C/c3ccc(N(C)C)cc3)cc(C)c2c1	SNB-19 CNS	%	26.2
COc1ccccc1NC(=O)n1c(=O)cc(C)c2ccc(O)cc21	SNB-19 CNS	%	106

# per-item lookup of growth; items listed below
1. COc1ccc(/C=C\c2cc(OC)c(OC)c(OC)c2)cc1OCC(=O)Nc1nc2ccccc2s1
2. CCOC(=O)CC1CSC(N/N=C/c2ccc(O)cc2)=N1 (configuration not stated)

Ans:
1. 43.8
2. 106
